Sourced from ChEMBL document CHEMBL1126945

Target: CDP-diacylglycerol--inositol 3-phosphatidyltransferase (Mus musculus) (UniProt Q8VDP6)
Sequence (whole entry): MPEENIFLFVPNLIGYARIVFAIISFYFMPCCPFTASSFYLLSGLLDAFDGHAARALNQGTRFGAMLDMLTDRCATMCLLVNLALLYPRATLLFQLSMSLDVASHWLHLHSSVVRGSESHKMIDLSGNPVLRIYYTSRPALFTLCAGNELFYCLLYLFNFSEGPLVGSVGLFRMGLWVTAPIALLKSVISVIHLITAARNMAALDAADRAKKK
Assay: Tested as substrate of phosphatidylinositol synthase in mouse brain by measuring percent CMP formation compared with myo-inositol tested at 5 mM
Format: functional, tissue-based
measured_attribute: Formation (%)

Examples with their reported Formation follow.
{"compound_structure_string": "O[C@@H]1[C@@H](O)[C@H](O)[C@@H](Cl)[C@@H](O)[C@H]1O", "Formation / %": 1}
{"compound_structure_string": "O[C@@H]1[C@@H](O)[C@@H](O)[C@@H](S)[C@@H](O)[C@@H]1O", "Formation / %": 1.5}
{"compound_structure_string": "[N-]=[N+]=N[C@@H]1[C@H](O)[C@H](O)[C@@H](O)[C@@H](O)[C@@H]1O", "Formation / %": 1}
{"compound_structure_string": "CO[C@H]1C[C@@H](O)[C@H](O)[C@H](O)[C@H]1O", "Formation / %": 0}
{"compound_structure_string": "O[C@H]1[C@@H](O)[C@H](O)C[C@H](O)[C@@H]1O", "Formation / %": 6}

I: O=C1[C@@H](O)[C@H](O)[C@@H](O)[C@H](O)[C@@H]1O
II: CO[C@@H]1[C@H](O)[C@@H](O)[C@@H](O)[C@H](O)[C@@H]1N=[N+]=[N-]
[ask] When I and II are compared, which has the higher number for Formation? Let me know the label of the one you choose.
[reply] I

A: O[C@@H]1[C@H](F)[C@@H](O)[C@@H](O)[C@H](O)[C@@H]1O
B: O[C@@H]1[C@@H](O)[C@H](O)[C@@H](F)[C@@H](O)[C@H]1O
C: O[C@H]1[C@H](O)[C@@H](O)[C@H](O)[C@@H](O)[C@H]1O
[ask] Rank the 3 molecules: largest Formation first, smallest last. Would you mind listing the labels in the order requested?
[reply] C, A, B
(C: 100%, A: 28%, B: 7%)

###

target: CDP-diacylglycerol--inositol 3-phosphatidyltransferase (Mus musculus); assay: Tested for inhibition of phosphatidylinositol synthase from mouse brain at 5 mM
measured_attribute: inhibition (%)

Examples with their reported inhibition follow.
{"compound_structure_string": "O[C@@H]1[C@@H](O)[C@H](O)[C@@H](F)[C@@H](O)[C@H]1O", "value_units": "%", "test_result": 37}
{"compound_structure_string": "CO[C@@H]1[C@H](O)[C@@H](O)[C@@H](O)[C@H](O)[C@@H]1N=[N+]=[N-]", "value_units": "%", "test_result": 10}
{"compound_structure_string": "O[C@@H]1[C@H](F)[C@@H](O)[C@@H](O)[C@H](O)[C@@H]1O", "value_units": "%", "test_result": 22}

P: O[C@@H]1[C@@H](O)[C@H](O)[C@@H](Cl)[C@@H](O)[C@H]1O
Q: O[C@H]1[C@@H](O)[C@H](O)C[C@H](O)[C@@H]1O
[ask] When P and Q are compared, which has the higher number for inhibition? Let me know the label of the one you choose.
[reply] P
(P: 30%, Q: 9%)

P: N[C@H]1[C@@H](O)[C@H](O)[C@H](O)[C@@H](O)[C@H]1O
Q: O[C@@H]1[C@@H](O)[C@@H](O)[C@@H](S)[C@@H](O)[C@@H]1O
[ask] When P and Q are compared, which has the higher number for inhibition? Let me know the label of the one you choose.
[reply] Q
(Q: 40%, P: 19%)

I: CO[C@H]1C[C@@H](O)[C@H](O)[C@H](O)[C@H]1O
II: O=C1[C@@H](O)[C@H](O)[C@@H](O)[C@H](O)[C@@H]1O
[ask] Pick one, I or II : lowest reported inhibition. Let me know the label of the one you choose.
[reply] I
(I: 28%, II: 47%)
